METHOD: oral bioavailability in dogs
Assay type: in vivo
CONDITIONS USED: both sexes, beagle, dog, plasma; unformulated solid in a capsule dosage form; 5 mg/kg oral dose in dogs
Procedure: Dogs (beagle dogs, mixed sexes, weighing 7-14 kg) were fasted overnight prior to dosing, but were permitted water ad libitum. Each dog received a 100 μg/kg subcutaneous dose of histamine approximately 30 minutes prior to dosing. […] Concentrations of parent drug were determined by reverse phase HPLC with low wavelength UV detection following liquid-liquid extraction of the plasma samples. The parent drug area under the curve was calculated by the trapezoidal method over the time course of the study. […]
ENDPOINT: bioavailability

## Task Entry CC(C)c1nc(CN(C)C(=O)NC(C(=O)NC(Cc2ccccc2)CC(O)C(Cc2ccccc2)NC(=O)OCc2cncs2)C(C)C)cs1 (stereo not shown) [compound of formula I] has what bioavailability?
## Result < 2%

Where do the numbers come from? From patent US7981911B2.
